Study System: OsSMF1 (Oryza sativa, UniProt Q6ZLB0 1-436)
Sequence: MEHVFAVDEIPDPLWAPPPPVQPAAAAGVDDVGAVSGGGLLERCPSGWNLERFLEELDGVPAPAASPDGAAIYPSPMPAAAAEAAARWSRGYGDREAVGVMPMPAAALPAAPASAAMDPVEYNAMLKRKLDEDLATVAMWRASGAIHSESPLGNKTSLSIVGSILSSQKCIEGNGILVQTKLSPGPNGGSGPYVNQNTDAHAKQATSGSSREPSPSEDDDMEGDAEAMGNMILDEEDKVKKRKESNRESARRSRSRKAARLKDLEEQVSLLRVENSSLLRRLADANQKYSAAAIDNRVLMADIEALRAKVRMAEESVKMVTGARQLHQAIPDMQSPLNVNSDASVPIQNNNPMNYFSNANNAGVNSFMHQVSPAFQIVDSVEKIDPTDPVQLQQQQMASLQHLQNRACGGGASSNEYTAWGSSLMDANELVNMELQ
Assay Remarks: protein-binding microarray (RPBM); PBS, 2% BSA, 51.3 ng/ul salmon testes DNA, 50 uM zinc acetate, 200 nM TF, 25 C, 1 h; high values mean tight binding
Measurement Parameters: protein: recombinant; tags: N-terminal polyhistidine and DsRed monomer fusion (pET32a); chain copies: 2; label: CyDye5-dUTP incorporated in the synthesized complementary strand; 3' TTTTT single-stranded linker to array surface; dsDNA, one strand shown
In all, about 39,000 sequences were measured (“fluorescence intensity (a.u.)”: median about 4,300, highest 2% from about 39,000 on). This is one part of a sample in which the highest values are shown more often than they occur.
Measured Property: binding signal

INSERT INTO assay_data (ordered_residues, measured_property, value_measured) VALUES
  ('TCGACCCACCGTCTGCCACGTCAGCTTGCCGCCCACCAATCGGAGTCACCTAGTGCAG', 'binding signal', '28900 fluorescence intensity (a.u.)'),
  ('AAGAGGGAGGGGAGGGTTCGCGAACCAGTAGAAAACGGCTCGGAGTCACCTAGTGCAG', 'binding signal', '3390 fluorescence intensity (a.u.)'),
  ('CCAGGCACCGACCTGTAGTTGCATCAGCAAACCATGGCTGCGGAGTCACCTAGTGCAG', 'binding signal', '4690 fluorescence intensity (a.u.)'),
  ('CATCAAACAACCAGTTTCTTAGGATGTCTTTTAACCGTGACGGAGTCACCTAGTGCAG', 'binding signal', '23200 fluorescence intensity (a.u.)'),
  ('CGAGGTGAGGCGGAGGGGAGGCAGAGGGGTAGAGGAGGGTCGGAGTCACCTAGTGCAG', 'binding signal', '5260 fluorescence intensity (a.u.)');

###

Study System: OsSMF1 (Oryza sativa, UniProt Q6ZLB0 1-436)
Sequence: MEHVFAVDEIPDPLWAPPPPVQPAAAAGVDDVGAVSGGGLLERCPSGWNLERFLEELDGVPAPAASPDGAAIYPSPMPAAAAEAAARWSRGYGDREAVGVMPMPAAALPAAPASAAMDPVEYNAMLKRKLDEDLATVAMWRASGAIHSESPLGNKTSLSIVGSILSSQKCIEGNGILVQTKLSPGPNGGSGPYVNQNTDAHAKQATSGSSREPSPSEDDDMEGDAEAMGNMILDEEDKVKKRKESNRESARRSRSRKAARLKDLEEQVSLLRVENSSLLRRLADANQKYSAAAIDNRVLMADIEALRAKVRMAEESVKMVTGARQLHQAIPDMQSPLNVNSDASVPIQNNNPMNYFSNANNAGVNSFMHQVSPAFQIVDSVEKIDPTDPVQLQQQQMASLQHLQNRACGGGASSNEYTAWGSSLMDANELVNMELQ
Assay Remarks: protein-binding microarray (RPBM); PBS, 2% BSA, 51.3 ng/ul salmon testes DNA, 50 uM zinc acetate, 200 nM TF, 25 C, 1 h; high values mean tight binding
Measurement Parameters: protein: recombinant; tags: N-terminal polyhistidine and DsRed monomer fusion (pET32a); chain copies: 2; label: CyDye5-dUTP incorporated in the synthesized complementary strand; 3' TTTTT single-stranded linker to array surface; dsDNA, one strand shown
In all, about 39,000 sequences were measured (“fluorescence intensity (a.u.)”: median about 4,300, highest 2% from about 39,000 on). Only a selection was taken, and the highest values are over-represented in it overall.
Reported binding signal values for the following sequences.
Measured Property: binding signal

INSERT INTO measurements (ordered_residues, value_measured) VALUES
  ('GAATAGAACATGTACAGTGACACATCTGCATTGGAAGCGTCGGAGTCACCTAGTGCAG', '7380 fluorescence intensity (a.u.)'),
  ('GCTCCCTCAGCCGTGGCACGTGTTCACAAGCCGTGACCAGCGGAGTCACCTAGTGCAG', '4570 fluorescence intensity (a.u.)'),
  ('CCGGATCTTCAGCAGAGTCGTGTCACCTGTTTTGATCGTTCGGAGTCACCTAGTGCAG', '3890 fluorescence intensity (a.u.)'),
  ('TAGTTCTGAAGTCTGAAATCCTTGCGGTCCTTCACCGCCTCGGAGTCACCTAGTGCAG', '55000 fluorescence intensity (a.u.)'),
  ('TATGTTCATTTCCTTATTTGCCTCTCGTCATGTCTCTTGACGGAGTCACCTAGTGCAG', '3420 fluorescence intensity (a.u.)');

###

Reported binding signal values for the following sequences.
Study System: OsSMF1 (Oryza sativa, UniProt Q6ZLB0 1-436)
Sequence: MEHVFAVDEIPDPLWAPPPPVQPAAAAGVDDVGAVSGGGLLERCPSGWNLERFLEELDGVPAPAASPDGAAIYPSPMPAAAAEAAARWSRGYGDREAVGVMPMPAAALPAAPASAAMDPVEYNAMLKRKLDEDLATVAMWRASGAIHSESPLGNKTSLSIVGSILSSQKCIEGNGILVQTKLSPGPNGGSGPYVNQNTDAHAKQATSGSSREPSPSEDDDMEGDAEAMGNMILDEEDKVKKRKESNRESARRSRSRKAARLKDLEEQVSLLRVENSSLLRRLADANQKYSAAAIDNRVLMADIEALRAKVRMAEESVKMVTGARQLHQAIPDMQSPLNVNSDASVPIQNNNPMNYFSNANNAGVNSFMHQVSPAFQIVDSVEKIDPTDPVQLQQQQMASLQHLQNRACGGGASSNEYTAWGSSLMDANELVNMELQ
Assay Remarks: protein-binding microarray (RPBM); PBS, 2% BSA, 51.3 ng/ul salmon testes DNA, 50 uM zinc acetate, 200 nM TF, 25 C, 1 h; high values mean tight binding
Measurement Parameters: protein: recombinant; tags: N-terminal polyhistidine and DsRed monomer fusion (pET32a); chain copies: 2; label: CyDye5-dUTP incorporated in the synthesized complementary strand; 3' TTTTT single-stranded linker to array surface; dsDNA, one strand shown
Whole data set: some 39,000 sequences, median “fluorescence intensity (a.u.)” near 4,300, cut for the highest 2% near 39,000. The sample holds the highest values, similar sequences and a random draw of the others, so the mix is not that of the screen.
Measured Property: binding signal

INSERT INTO results (ordered_residues, measured_property, value_measured) VALUES
  ('CTGCTCCTAGTCACACTTGACAGTTCAGCTTCAGCTCCTCCGGAGTCACCTAGTGCAG', 'binding signal', '6360 fluorescence intensity (a.u.)'),
  ('AAAATAAAATTTATTAATAATATTTTATCTATATTTACGACGGAGTCACCTAGTGCAG', 'binding signal', '30400 fluorescence intensity (a.u.)'),
  ('GCCTGTGGCCCACGCCGTCAGTGGGAGTGGCGGTGTCGGGCGGAGTCACCTAGTGCAG', 'binding signal', '3960 fluorescence intensity (a.u.)'),
  ('CCAAACTAAGAGTGTTCAAGGGGAGGGGAAAAGAGAAGATCGGAGTCACCTAGTGCAG', 'binding signal', '3660 fluorescence intensity (a.u.)'),
  ('TATGTATGAATGACAACACCGCCACGTCAGCGCCACGTCACGGAGTCACCTAGTGCAG', 'binding signal', '50400 fluorescence intensity (a.u.)'),
  ('CCCACCTTTCAAATTCCACGTCCGCCAATAATATTATTACCGGAGTCACCTAGTGCAG', 'binding signal', '6710 fluorescence intensity (a.u.)'),
  ('CCACCCACGGAGCCAGCTCACTACCACCGTTTGTCGCCTCCGGAGTCACCTAGTGCAG', 'binding signal', '4360 fluorescence intensity (a.u.)'),
  ('ATTCTAATGACACCTAAGTGCCACGTCAACGCCACGTGGACGGAGTCACCTAGTGCAG', 'binding signal', '45100 fluorescence intensity (a.u.)'),
  ('TCGAAAACTTTTCAGCCACGTGATGTTGGCAATCGCTGTTCGGAGTCACCTAGTGCAG', 'binding signal', '7190 fluorescence intensity (a.u.)'),
  ('TTGTTAATTACCGCGATTGATGTCGAGCTTGCATTTTGATCGGAGTCACCTAGTGCAG', 'binding signal', '3540 fluorescence intensity (a.u.)'),
  ('AATTACATAATTTTAATACGAAGATGAATGATCAAATATACGGAGTCACCTAGTGCAG', 'binding signal', '56600 fluorescence intensity (a.u.)'),
  ('TGAGCTGCTTTTACACGTTGCTTTATTGACACTTGTTCACCGGAGTCACCTAGTGCAG', 'binding signal', '45500 fluorescence intensity (a.u.)'),
  ('TAGTTATAAAGCACTGTAATTTTAGTTATAAATACAACATCGGAGTCACCTAGTGCAG', 'binding signal', '3260 fluorescence intensity (a.u.)'),
  ('GCAGTCTTGTAGTCTCGTGCACCAATCGTCGCGCCGCGGCCGGAGTCACCTAGTGCAG', 'binding signal', '22300 fluorescence intensity (a.u.)'),
  ('TCACTTCTCTCCTCCACATGTGCATACAACTGACTTATAACGGAGTCACCTAGTGCAG', 'binding signal', '4660 fluorescence intensity (a.u.)'),
  ('TGTTGATGGCGTCATTATTTACATGGTATGGTGCATTTGGCGGAGTCACCTAGTGCAG', 'binding signal', '14600 fluorescence intensity (a.u.)'),
  ('CTATAAACTTAGTTAAACTAAAGCTGCTATTTAACTTTGACGGAGTCACCTAGTGCAG', 'binding signal', '3280 fluorescence intensity (a.u.)'),
  ('TCCTCTTGCCTCCTCCGCTGAGGCAGCCAGTGCGTGCGCCCGGAGTCACCTAGTGCAG', 'binding signal', '3360 fluorescence intensity (a.u.)'),
  ('AAGAGGATCGCAATCGTGAAAACTTCGCAAGTGTTCAGAACGGAGTCACCTAGTGCAG', 'binding signal', '59100 fluorescence intensity (a.u.)'),
  ('ATTGTTTAGTATTGCGTTATGTTATGTTACTTTTGATACACGGAGTCACCTAGTGCAG', 'binding signal', '14400 fluorescence intensity (a.u.)'),
  ('AAACATAACAATATTTTCAACATAAAACAAATAATGTTATCGGAGTCACCTAGTGCAG', 'binding signal', '3530 fluorescence intensity (a.u.)'),
  ('CTTAGCCGGCTATACGCGGCTACGTTGGCTGACTTGGTAGCGGAGTCACCTAGTGCAG', 'binding signal', '4170 fluorescence intensity (a.u.)'),
  ('GCCGTTGTCCGAAGGTTCAGCATATTGCTGACATATTGCCCGGAGTCACCTAGTGCAG', 'binding signal', '4940 fluorescence intensity (a.u.)'),
  ('CACGTAAGCGTCACGTCAATGCCACGTGGGACGGTGACCTCGGAGTCACCTAGTGCAG', 'binding signal', '27900 fluorescence intensity (a.u.)'),
  ('TGAAACGGAGGGAGTATTATTAATATCTTAAGATGGACGACGGAGTCACCTAGTGCAG', 'binding signal', '6690 fluorescence intensity (a.u.)'),
  ('ACGCATGGATCCACGTGACGTCACGCCACGTCATCCACCACGGAGTCACCTAGTGCAG', 'binding signal', '60800 fluorescence intensity (a.u.)'),
  ('AGCATTTCCATCCACCACACGCGTACGTCCCCGTCACGCGCGGAGTCACCTAGTGCAG', 'binding signal', '7440 fluorescence intensity (a.u.)'),
  ('CATCTAATTGCCACATAAGCGCCACGTCAACGACACGTTGCGGAGTCACCTAGTGCAG', 'binding signal', '41300 fluorescence intensity (a.u.)'),
  ('TTAGGCCAAGTATGGGGTTGGGGCTATGGAGGAGAAGGGCCGGAGTCACCTAGTGCAG', 'binding signal', '3320 fluorescence intensity (a.u.)'),
  ('TTGCCACGTAATCGCTACGTCAATGCCACGTGGGACGGAGCGGAGTCACCTAGTGCAG', 'binding signal', '43800 fluorescence intensity (a.u.)'),
  ('GACAACCGAACACGTCGAGCCAGCGAATGATGAAACCCCACGGAGTCACCTAGTGCAG', 'binding signal', '31800 fluorescence intensity (a.u.)'),
  ('GCCCACAAGCGCTCGGCTCGAAACGCCACGTCACCACGCTCGGAGTCACCTAGTGCAG', 'binding signal', '43800 fluorescence intensity (a.u.)'),
  ('ATAGGGTGAGAAAGCACCTCGTTTTCCACGCGCACGCTTCCGGAGTCACCTAGTGCAG', 'binding signal', '3330 fluorescence intensity (a.u.)'),
  ('CGGTGTTTGTAATTCATTTTATATAATGAAAATGGATTATCGGAGTCACCTAGTGCAG', 'binding signal', '44600 fluorescence intensity (a.u.)'),
  ('GTCGTCTAGTAGTAGTAGCCTACCACCACCTCCCTCGGCGCGGAGTCACCTAGTGCAG', 'binding signal', '3230 fluorescence intensity (a.u.)'),
  ('ATATAAGATGTAACTATTACGATGTTTCATGATACAAGTACGGAGTCACCTAGTGCAG', 'binding signal', '15000 fluorescence intensity (a.u.)'),
  ('TACTTAGTAGCTAGGAGCTATATTGGTTGGAAAGGAGCGCCGGAGTCACCTAGTGCAG', 'binding signal', '51200 fluorescence intensity (a.u.)');
